Test: DNDI: Metabolism
Format: ADME, 10116, Microsome
Conditions: rat, microsomes
readout_kind: microsomal CLint
In your response, the unit should come after the numeric value.

Q: Which microsomal CLint is reported for this molecule? O=C(C(c1ccc(Cl)cc1)c1cccnc1)N1CCN(c2ccc(C(F)(F)F)cc2)CC1 (stereo unspecified)
Ans: 38 µL/min/mg

---

Experiment: DNDI: Lipophilicity (s.f. LogD) at pH 5
Type: physicochemical
Conditions: buffer
readout_kind: logD
Give your answer as a number; write no unit.

Q: Which logD is reported for this compound? O=C(C(c1ccc(Cl)cc1)c1cccnc1)N1CCN(c2ccc(C(F)(F)F)cc2)CC1 (stereo unspecified)
Ans: 5.47

Data provenance: ChEMBL document CHEMBL3137386
